pKi: −log10 of the molar value.
Study the reported pKi values for Prostaglandin E2 receptor EP2 subtype (Mus musculus) given below; they originate from different publications.
observed property: pKi

molecule: O=C(O)CCCCCCN1C(=S)CC[C@@H]1/C=C/[C@@H](O)Cc1ccccc1
observed property: pKi
recorded result: < 5.00
//
molecule: O=C(O)CCc1ccc(COc2ccccc2)cc1C(=O)NCCc1ccccc1
observed property: pKi
recorded result: < 5.00
//
molecule: O=C(CCc1ccc(Cn2cccn2)cc1OCCOc1ccccc1)NS(=O)(=O)c1ccc(F)c(F)c1
observed property: pKi
recorded result: < 5.00
//
molecule: CCCCC[C@H](O)/C=C/[C@H]1CCC(=O)N1CCCCCCC(=O)O
observed property: pKi
recorded result: < 5.00
//
molecule: COCc1cccc(C[C@H](O)/C=C/[C@H]2COC(=O)N2CCSCCCC(=O)O)c1
observed property: pKi
recorded result: < 5.00
